// Ki collected for human MIF (Homo sapiens (Human))
Attribute measured: Ki (nM)

Fc1ccc(-n2cc(-c3ccc4cc(OCCOCCN5CCOCC5)ccc4n3)nn2)cc1	29600
NCc1cccc(Oc2cccc3nc(-c4cn(-c5ccc(O)c(F)c5)nn4)ccc23)c1	568
Oc1ccc(-n2cc(-c3ccc4ccc(OCCOCCN5CCOCC5)cc4n3)nn2)cc1	850
COc1cccc2ccc(-c3cn(-c4ccc(F)cc4)nn3)nc12	56000
Oc1ccc(-n2cc(-c3ccc4cc(OCCCN5CCOCC5)ccc4n3)nn2)cc1	1950

A. Oc1c(F)cc(-n2cc(-c3ccc4cc(OCCOCCN5CCOCC5)ccc4n3)nn2)cc1F
B. Oc1ccc(-n2cc(-c3ccc4ccc(OCCOCCN5CCOCC5)cc4n3)nn2)cc1F
Query: Parameter check: reported Ki is higher for which label, A or B ? Please identify the chosen entry by its label.
Response: A
(A: 3750 nM, B: 290 nM)

I. Cc1cc2ccccc2nc1-c1cn(-c2ccc(O)cc2)nn1
II. Oc1ccc(-n2cc(-c3ccc4cccc(Oc5ccccc5)c4n3)nn2)cc1
Query: When I and II are compared, which has the higher number for Ki? Give the chosen item's label as your response.
Response: I

I. O=C(O)CCCOc1ccc2ccc(-c3cn(-c4ccc(O)c(F)c4)nn3)nc2c1
II. Oc1ccc(-n2cc(-c3ccc4cccnc4n3)nn2)cc1
Query: Hi team, can someone confirm which has the larger Ki: I or II ? Thanks. Lab log: write the label of the selected item as the result.
Response: II

====

- Measurement description: Aqueous solubility
- Format: physicochemical
- Setup conditions: aqueous solvent (not further specified), μg compound/mL solvent
Attribute measured: solubility (µg/mL)

Examples with their reported solubility follow.
NCCOCCOc1ccc2nc(-c3cn(-c4ccc(O)cc4)nn3)ccc2c1 [Example 28]	13.9
O=C(O)COCCOc1ccc2nc(-c3cn(-c4ccc(O)c(F)c4)nn3)ccc2c1 [Example 44]	867
COCCOc1ccc2nc(-c3cn(-c4ccc(O)cc4)nn3)ccc2c1 [Example 2]	3.6
NCCOCCOc1ccc2nc(-c3cn(-c4ccc(O)c(F)c4)nn3)ccc2c1 [Example 34]	9.1
O=C(O)c1cccc(Oc2cccc3nc(-c4cn(-c5ccc(O)c(F)c5)nn4)ccc23)c1 [Example 32]	47.2
Oc1ccc(-n2cc(-c3ccc4cc(OCCOCCN5CCOCC5)ccc4n3)nn2)cc1 [Example 21]	48.5
O=C(O)CCCOc1ccc2nc(-c3cn(-c4ccc(O)c(F)c4)nn3)ccc2c1 [Example 43]	19.2
Oc1ccc(-n2cc(-c3ccc4cc(OCCOCCN5CCOCC5)ccc4n3)nn2)cc1F [Example 22]	27.2

P. Oc1ccc(-n2cc(-c3ccc4ccccc4n3)nn2)cc1 [Example 1]
Q. O=C(O)COc1ccc2nc(-c3cn(-c4ccc(O)cc4)nn3)ccc2c1 [Example 45]
Query: # return whichever of P and Q has the smaller solubility Label of pick, please.
Response: P
(P: 2.2 µg/mL, Q: 364 µg/mL)
